method_notes: Pharmacokinetic/toxicokinetic evaluation in dogs
Format: in vivo, beagle dogs
protocol_conditions: female, beagle, dog, plasma, iv, 1.2 mg/kg, female, Dose 5, 1.2 mg/kg IV, harmonic mean, read-out: T1/2 (converted)
readout_kind: half-life (h)

>>> df
                                   molecule  numeric_result
0  CN1CCCC1CCNC(=O)c1cn2c3c(c(N4CCC(c5cnccn5)C4)c(F)cc3c1=O)Oc1cc3ccccc3cc1-2 (stereo not shown) [CX-3543]             5.2

* * *

target_under_test: c-Myc template DNA (c-myc quadruplex)
method_notes: Quadruplex binding / stop assay (Taq polymerase arrest, capillary electrophoresis)
protocol_conditions: read-out: Stop Data c-Myc μM; concentration at which 50% of the DNA was arrested (arrested:full-length 1:1)
// IC50 lookup, one value per entry
readout_kind: IC50 (µM)

                                    compound  readout_kind  unit  numeric_result
 0  CN(C)CCCCNc1c(F)cc2c(=O)c(C(=O)NCCCN3CCOCC3)cn3c4cc5c(cc4oc1c23)c(=O)c1ccccc15          IC50    µM           0.375
 1  CN(C)CCCCNC(=O)c1cn2c3c(c(N4CC[C@H](N)C4)c(F)cc3c1=O)Oc1cc3ccccc3cc1-2          IC50    µM            0.58
 2  CN1CCCC1CCNC(=O)c1cn2c3c(c(NCCN4CCCC4)ccc3c1=O)Oc1cc3ccccc3cc1-2 (stereo not drawn) [compound 446]          IC50    µM            0.75
 3  CN1CCN(CCCNC(=O)c2cn3c4c(c(N5CC[C@@H](NC(=O)CCN6CCCCC6)C5)c(F)cc4c2=O)Oc2cc4c(cc2-3)oc2ccccc24)CC1          IC50    µM           0.375
 4  CN1CCCC1CCNC(=O)c1cn2c3c(c(NCCCO)c(F)cc3c1=O)Oc1cc3ccccc3cc1-2 (stereo not drawn)          IC50    µM            1.75
 5  CCN1CCCC1CNc1c(F)cc2c(=O)c(C(=O)N3CCOCC3)cn3c2c1Oc1cc2ccccc2cc1-3 (stereo not drawn)          IC50    µM             2.5
 6  Nc1c(F)c(F)c2c3c1c(=O)c(C(=O)O)cn3-c1cc3ccccc3cc1O2          IC50    µM            1.75
 7  CN1CCCC1CCNC(=O)c1cn2c3c(c(N4CCC(NC(=O)OC(C)(C)C)C4)c(F)c(N)c3c1=O)Oc1cc3ccccc3cc1-2 (stereo not drawn)          IC50    µM            1.75
 8  CN(CCc1ccccn1)C(=O)c1cn2c3c(c(NCCCN4CCOCC4)c(F)cc3c1=O)Oc1cc3c(cc1-2)-c1ccccc1C3          IC50    µM               1
 9  CCN(CC)CCCC(C)NC(=O)c1cn2c3c(c(N4CCC(N)C4)c(F)cc3c1=O)Oc1cc3ccccc3cc1-2 (stereo not drawn)          IC50    µM           0.375
10  CC1CCCCN1CCCNc1c(F)cc2c(=O)c(C(=O)NCCC3CCCN3C)cn3c2c1Oc1cc2ccccc2cc1-3 (stereo not drawn) [compound 259]          IC50    µM            1.75
11  CC(=O)N[C@@H]1CCN(c2c(F)cc3c(=O)c(C(=O)NCCCN4CCN(C)CC4)cn4c3c2Oc2cc3c(cc2-4)oc2ccccc23)C1          IC50    µM            1.75
12  CN1CCN(CCCNc2c(F)cc3c(=O)c(C(=O)NCCCn4ccnc4)cn4c3c2Oc2cc3c(cc2-4)oc2ccccc23)CC1          IC50    µM             0.5
13  CN1CCN(CCCNC(=O)c2cn3c4cc5c(=O)c6ccccc6c(=O)c5cc4oc4c(N5CCN(C)CC5)c(F)cc(c2=O)c43)CC1          IC50    µM             0.9
14  CN(C)CCCCNc1c(F)cc2c(=O)c(C(=O)NCCN3CCOCC3)cn3c2c1Oc1cc2c(cc1-3)oc1ccccc12          IC50    µM            1.75
15  CN1CCCN(C(=O)c2cn3c4c(c(N5CCC(N)C5)c(F)cc4c2=O)Oc2cc4ccccc4cc2-3)CC1 (stereo not drawn)          IC50    µM            1.75
16  CN1CCCC1CCNC(=O)c1cn2c3c(c(N(C)C4CCNC4)c(F)cc3c1=O)Oc1cc3ccccc3cc1-2 (stereo not drawn)          IC50    µM            0.75
17  CN(C)CCCCNc1c(F)cc2c(=O)c(C(=O)NCCC3CCCN3C)cn3c4cc5oc6cc([N+](=O)[O-])ccc6[nH]c5cc4oc1c23 (stereo not drawn)          IC50    µM            0.18
18  CN1CCC(NC(=O)c2cn3c4c(c(N5CCC(N)C5)c(F)cc4c2=O)Oc2cc4ccccc4cc2-3)CC1 (stereo not drawn)          IC50    µM            0.75
19  O=C(NCCCN1CCOCC1)c1cn2c3cc4c(cc3oc3c(NCCN5CCOCC5)c(F)cc(c1=O)c32)c(=O)c1ccccc14          IC50    µM            1.75
20  O=C(NCCN1CCCC1)c1cn2c3c(c(NCCN4CCCC4)c(F)cc3c1=O)Oc1c-2ccc2ccccc12          IC50    µM            1.75
21  CN1CCCC1CCNC(=O)c1cn2c3c(c(N4CC[C@@H](NC(=O)CCNCCCN5CCOCC5)C4)c(F)cc3c1=O)Oc1cc3c(cc1-2)oc1ccccc13 (stereo partly drawn)          IC50    µM            0.75
22  NC1CCN(c2c(F)cc3c(=O)c(C(=O)NCCCn4ccnc4)cn4c3c2Oc2cc3c(cc2-4)oc2ccccc23)C1 (stereo not drawn)          IC50    µM           0.375
23  N[C@H]1CCN(C(=O)c2cn3c4cc5c(cc4oc4c(NCCN6CCCC6)c(F)cc(c2=O)c43)c(=O)c2ccccc25)C1          IC50    µM            1.75
24  CN1CCCC1CCNC(=O)c1cn2c3c(c(/N=C4\CCCCN4)c(F)cc3c1=O)Oc1cc3ccccc3cc1-2 (stereo not drawn)          IC50    µM            1.75
25  NC1CCN(c2c(F)cc3c(=O)c(C(=O)NCCCn4ccnc4)cn4c3c2Oc2cc3ccccc3cc2-4)C1 (stereo not drawn)          IC50    µM            1.75
26  CN(C)CCCCNc1c(F)cc2c(=O)c(C(=O)NCCC3CCCN3C)cn3c2c1Oc1cc2c(cc1-3)oc1ccccc12 (stereo not drawn)          IC50    µM            0.75
